- Tested on: OVCAR-4
- measurementDescription: NCI tumour cell line growth inhibition, 48 h
Activity calls are given as the source filed them. Rule as the data show it: active = GI50 up to about 1.1 µM and inactive = higher.
Possible outcomes: active, inactive

compound: O=C(Nc1ccc(Cl)cc1)C(=O)C1=C(O)c2ccccc2OC1
targetOfAssay: OVCAR-4
classAssignment: inactive
--
compound: COC(=O)c1ccc2c(c1)CC1(C2)Cc2cc3c(cc2C1=O)CCC3 (stereo not drawn)
targetOfAssay: OVCAR-4
classAssignment: inactive
--
compound: [O-][n+]1ccc(NO)c2ccccc21
targetOfAssay: OVCAR-4
classAssignment: inactive
--
compound: Cc1cc(S(=O)(=O)Nc2nc3cc(-c4ccc(Cl)cc4)sc3c(=O)n2N)c(S)cc1Cl
targetOfAssay: OVCAR-4
classAssignment: inactive
--
compound: CCn1c2ccc(C(=O)CCCN(C)C)cc2c2cc(C(=O)CCCN(C)C)ccc21
targetOfAssay: OVCAR-4
classAssignment: inactive
--
compound: CCOC(=O)CN(CC)C(=O)NC12CC3CC(CC(C3)C1)C2
targetOfAssay: OVCAR-4
classAssignment: inactive
--
compound: C=C(C)C1CC2(C)C(C)CC(OC(=O)/C(C)=C\C)CC2C(OC(=O)/C(C)=C\C)C1O (stereo not drawn)
targetOfAssay: OVCAR-4
classAssignment: inactive
--
compound: CC(C)=CC(=O)c1[nH]c2ccccc2c1CC(=O)NCCc1c[nH]cn1
targetOfAssay: OVCAR-4
classAssignment: inactive
--
compound: NC(=O)C(=CNC(=S)Nc1cccc(C(F)(F)F)c1)C(N)=O
targetOfAssay: OVCAR-4
classAssignment: inactive
--
compound: CCc1n[nH]c(=O)n1NC(=O)c1ccccc1C(=O)O
targetOfAssay: OVCAR-4
classAssignment: inactive
--
compound: O=C1C(c2ccccc2)=C(c2ccccc2)C(c2ccccc2)/C1=C1\C(=O)C(c2ccccc2)=C(c2ccccc2)C1c1ccccc1 (stereo not drawn)
targetOfAssay: OVCAR-4
classAssignment: inactive
--
compound: CCCCCCNCCCNc1c2ccccc2nc2cccc([N+](=O)[O-])c12
targetOfAssay: OVCAR-4
classAssignment: active
--
compound: O=c1[nH]c(=O)n(C2C(CO)OC(CO)C2O)cc1F (stereo not drawn)
targetOfAssay: OVCAR-4
classAssignment: inactive
--
compound: Cc1cccc(C)c1N1C(=O)C(=O)C(c2nc3ccccc3s2)/C(=N/NC(=O)c2ccccc2O)C1=O (stereo not drawn)
targetOfAssay: OVCAR-4
classAssignment: inactive
--
compound: O=c1cnn(C/C=C/CBr)c(=O)[nH]1
targetOfAssay: OVCAR-4
classAssignment: inactive
--
compound: O=C(c1ccccc1)N1CCN(C(=S)N(C(=O)c2ccccc2)c2ccccc2)C1=S
targetOfAssay: OVCAR-4
classAssignment: inactive
--
compound: COc1ccc(CCc2cc(OC)c(OC)c(OC)c2)cc1
targetOfAssay: OVCAR-4
classAssignment: inactive
--
compound: CCCCCC(/C=N/NC(N)=S)C(O)(C(F)(F)F)C(F)(F)F (stereo not drawn)
targetOfAssay: OVCAR-4
classAssignment: inactive
--
compound: CCN(CC)c1ccc(/N=N/c2ccc(-c3nc4cccnc4o3)cc2)cc1
targetOfAssay: OVCAR-4
classAssignment: inactive
--
compound: c1ccc2c(c1)SCCCSCCCS2
targetOfAssay: OVCAR-4
classAssignment: inactive
--
compound: CC(C)(Cl)C(Br)CCC(C)(Cl)C(Br)CBr (stereo not drawn)
targetOfAssay: OVCAR-4
classAssignment: inactive
--
compound: Nc1ccc(/N=N/c2ccc(-c3ccc(/N=N/c4c(S(=O)(=O)O)cc5cc(S(=O)(=O)O)c(/N=N/c6ccc([N+](=O)[O-])cc6)c(N)c5c4O)cc3)cc2)c2cc(S(=O)(=O)O)ccc12
targetOfAssay: OVCAR-4
classAssignment: inactive
--
compound: O=C(/C=C/c1ccc(OCC(=O)N2CCN(c3ccccc3)CC2)cc1)c1ccccc1
targetOfAssay: OVCAR-4
classAssignment: inactive
--
compound: Cc1ccc(-c2n[nH]c(=O)[nH]2)cc1[N+](=O)[O-]
targetOfAssay: OVCAR-4
classAssignment: inactive
--
compound: CC(=O)/C(=C/NC(=S)Nc1ccccc1)C(=O)Nc1ccccc1C
targetOfAssay: OVCAR-4
classAssignment: inactive
--
compound: CC(C)(C)OC/C=C(/CO)[C@@H]1C=C[C@H](O)C1
targetOfAssay: OVCAR-4
classAssignment: inactive
--
compound: CC(=O)OC(C)c1cc2c(s1)C(=O)c1ccsc1C2=O (stereo not drawn)
targetOfAssay: OVCAR-4
classAssignment: active
--
compound: O=c1[nH]c(=O)n(C2CC(O)C(CO)O2)cc1C#Cc1c(F)c(F)c(F)c(F)c1F (stereo not drawn)
targetOfAssay: OVCAR-4
classAssignment: inactive
--
compound: C[C@H]1[C@H](C)N(Cc2ccccc2)P(=O)(C(O)/C=C/c2ccccc2)N1Cc1ccccc1 (stereo partly drawn)
targetOfAssay: OVCAR-4
classAssignment: inactive
--
compound: c1ccc(-c2csc3ncn4cnnc4c23)cc1
targetOfAssay: OVCAR-4
classAssignment: inactive
--
compound: NNc1nnc(-c2nnc(NN)o2)o1
targetOfAssay: OVCAR-4
classAssignment: inactive
--
compound: O=[N+]([O-])c1ccc2c(/N=N/c3ccc4ccccc4c3O)c(O)cc(S(=O)(=O)O)c2c1
targetOfAssay: OVCAR-4
classAssignment: inactive
--
compound: CC1(N2CCOCC2)CC2C(=[N+]1[O-])CCC/C2=N/O (stereo not drawn)
targetOfAssay: OVCAR-4
classAssignment: inactive
--
compound: Cn1c(=O)cc(NNc2ccc(Br)cc2)[nH]c1=O
targetOfAssay: OVCAR-4
classAssignment: inactive
--
compound: CC(C)(C)C1CCC2c3c([nH]c4ccccc34)C3C(=O)N(c4cccc(Cl)c4)C(=O)C3C2C1 (stereo not drawn)
targetOfAssay: OVCAR-4
classAssignment: inactive
--
compound: Cc1ccc2c(O)cc(-c3ccc4ccccc4c3)nc2n1
targetOfAssay: OVCAR-4
classAssignment: inactive
--
compound: COc1ccc(CCCCNCc2cccc(CNCCCCc3ccc(OC)cc3)c2)cc1
targetOfAssay: OVCAR-4
classAssignment: inactive
--
compound: O=C1NC(N2CCCC(CO)C2)=N/C1=C\c1cccs1 (stereo not drawn)
targetOfAssay: OVCAR-4
classAssignment: inactive
--
compound: Nc1ccc2c(=O)cc(-c3ccc(Br)s3)[nH]c2n1
targetOfAssay: OVCAR-4
classAssignment: inactive
--
compound: Nc1nc(Cl)cc(NCCC2(CO)CCC2)n1
targetOfAssay: OVCAR-4
classAssignment: inactive
--
compound: O=c1c2ccccc2[nH]c(=S)n1-c1ccc(/N=N/c2cccc3c(O)cccc23)cc1
targetOfAssay: OVCAR-4
classAssignment: inactive
--
compound: CN(C)C=C1C(Cl)=C(C=O)CC(C=O)=C1Cl
targetOfAssay: OVCAR-4
classAssignment: inactive
--
compound: O=[N+]([O-])C(/C(Cl)=C(\Cl)Br)=C(/Cl)SCc1ccccc1
targetOfAssay: OVCAR-4
classAssignment: inactive

---

- Test system: M14
- measurementDescription: NCI tumour cell line growth inhibition, 48 h
Active and inactive are the calls of the source. Cut-off read from the data, not from the text of the source: active = GI50 up to about 1.1 µM and inactive = higher.
Outcome codes: active, inactive

compound: B.CC(=O)OC1CN2CCC1CC2 (stereo unspecified)
classAssignment: inactive
--
compound: Nc1nn2c(C(Br)Br)cc(C(Br)Br)nc2c1[N+](=O)[O-]
classAssignment: active
--
compound: CCC1(CN(C)C)CC/C(=C\c2ccc(OC)cc2)C1=O (stereo unspecified)
classAssignment: inactive
--
compound: C=C(C)C1CC2(C)C(C)CC(OC(=O)/C(C)=C\C)CC2C(OC(=O)/C(C)=C\C)C1O (stereo unspecified)
classAssignment: inactive
--
compound: COc1ccc2nc3ccc(OC)cc3c([S+]([O-])Cc3ccc([N+](=O)[O-])cc3)c2c1 (stereo unspecified)
classAssignment: inactive
--
compound: O=[N+]([O-])c1cc(Cc2cc([N+](=O)[O-])c3cccnc3c2O)c(O)c2ncccc12
classAssignment: inactive
--
compound: CC(C)CCNC(=O)c1ccc(CNC(=O)/C=C/c2ccc(-c3ccccc3[N+](=O)[O-])o2)cc1
classAssignment: inactive
--
compound: O=C1C2CC[C@@H]3C(=O)C(Cl)(Cl)[C@@H]3CCC2C1(Cl)Cl (stereo partly specified)
classAssignment: inactive
--
compound: CC(C)CC1NC(=O)C(C(C)C)NC(=O)CC(C)COC(=O)C(CC(C)C)N(C)C(=O)C(C(C)C)NC(=O)C(C(C)C)OC1=O (stereo unspecified)
classAssignment: inactive
--
compound: O/N=C(\CC(O)(C(F)(F)F)C(F)(F)F)c1cccs1
classAssignment: inactive
--
compound: O=C(O)C12CC3CC(CC(F)(C3)C1)C2
classAssignment: inactive
--
compound: NC(=O)NC(=O)Nc1ccc(Br)cc1
classAssignment: inactive
--
compound: C=C(C)[C@@]1(O)O[C@H]2C[C@@]3(C)OC(=CC3=O)/C(C)=C\[C@@H]3OC(=O)[C@@]1(C)[C@H]32
classAssignment: inactive
--
compound: O=c1[nH]cnc2c(C3OC(CO)C(O)C3O)c[nH]c12 (stereo unspecified)
classAssignment: inactive
--
compound: C[C@@H](C1CCC2C3C(=CC(=O)[C@@]21C)[C@H](C)[C@]1(CCC(=O)O1)C1OC31)[C@H]1C[C@]2(C)O[C@@](C)(O1)OC2(C)C (stereo partly specified)
classAssignment: inactive
--
compound: CCOC(=O)c1c(N2CCCC2)[nH]c(=O)c(C(c2ccc(N(C)C)cc2)c2c(O)c(C(=O)OCC)c(N3CCCC3)[nH]c2=O)c1O
classAssignment: inactive
--
compound: CCOC(=O)/C(C#N)=C(/NNc1ccccc1)c1ccncc1C(=O)O
classAssignment: inactive
--
compound: CCOC(=O)[C@@]1(C)C=C2O[C@@H]3OC4(CCCCC4)O[C@@H]3C2=C2C(O)=CC=C(O)[C@]21C(=O)OC
classAssignment: inactive
--
compound: C=CCOn1c(C=C)nc2c(C)cccc21
classAssignment: inactive
--
compound: CC1CCC(O)(C(C)(C(=O)O)c2ccccc2)CC1 (stereo unspecified)
classAssignment: inactive
--
compound: CC1CCCC2(O1)OC1CC(=O)OC1C1=C2C(=O)c2ccccc2C1=O (stereo unspecified)
classAssignment: inactive
--
compound: CCOC(=O)C1=C(O)C(=O)c2ccccc2C1=O
classAssignment: inactive
--
compound: c1ccc(-n2cnnc2-c2nsc3ccccc23)cc1
classAssignment: inactive
--
compound: Oc1ccc(-c2cn3cc(C(F)(F)F)ccc3n2)cc1
classAssignment: inactive
--
compound: O=C(Nc1ccc(Cl)cc1)C(=O)C1=C(O)c2ccccc2OC1
classAssignment: inactive
--
compound: COc1ccccc1NC(=O)C1=C(C)NC(C)=C(C(=O)Nc2ccccc2OC)C1c1cccc2c1OCO2
classAssignment: inactive
--
compound: COc1ccc2c3c([nH]c(=O)c2c1C(=O)O)-c1ccccc1CC3
classAssignment: inactive
--
compound: CCc1nc(N)nc(N)c1-c1ccc(NCCN)c([N+](=O)[O-])c1
classAssignment: inactive
--
compound: Clc1ccc(-c2c(C3=NCCCN3)nnn2-c2ccccc2)cc1
classAssignment: inactive
--
compound: COC(=O)C1(C)CCCC2(C)C3CCC4CC3(C=C4CO)CCC12 (stereo unspecified)
classAssignment: inactive
--
compound: CC(C)(C)c1cc2c(O)c(c1)Cc1cc(C(C)(C)C)cc(c1O)Cc1cc(C(C)(C)C)cc(c1O)Cc1cc(C(C)(C)C)cc(c1O)Cc1cc(C(C)(C)C)cc(c1O)Cc1cc(C(C)(C)C)cc(c1O)Cc1cc(C(C)(C)C)cc(c1O)Cc1cc(C(C)(C)C)cc(c1O)C2
classAssignment: inactive
--
compound: CC1(C)C/C(=N/O)c2c(nc3ccc4ccccc4c3c2-c2ccc(Cl)cc2)C1
classAssignment: inactive
--
compound: O=C1NC(N2CCCC(CO)C2)=N/C1=C\c1cccs1 (stereo unspecified)
classAssignment: inactive
--
compound: N#Cc1cc2c(n(C3OC(CO)C(O)C(O)C3O)c1=S)CCC2 (stereo unspecified)
classAssignment: inactive
--
compound: O=C(/C=C/c1ccccc1)CCC1C(=O)NC(=O)NC1=O
classAssignment: inactive
--
compound: Cc1ccc(CC2(C(=O)O)Cc3ccc(C)cc3C2)cc1 (stereo unspecified)
classAssignment: inactive
--
compound: Oc1ccc2c(c1)OCC(O)(c1ccccc1O)C2 (stereo unspecified)
classAssignment: inactive
--
compound: CC(C)c1ccc(/C=C/c2cc(C(=O)NNC(=O)NC3CCCCC3)nc(S)n2)cc1
classAssignment: inactive
--
compound: O=C(OC1C#CCSCC#C/C=C\1)c1cnc2ccccc2n1 (stereo unspecified)
classAssignment: inactive
--
compound: CCCCCCCCCCCCOC(=S)NCCCC
classAssignment: inactive
--
compound: C[C@]12CCC(=O)C(O)=C1CCC2=O
classAssignment: inactive

The origin of these recorded values is ChEMBL document CHEMBL1201862.
